method: Selectivity index, ratio of IC50 for african green monkey (Cercopithecus aethiops) Vero cells to IC50 for chloroquine-sensitive Plasmodium falciparum D6
Type: toxicity, cell-based
applied.conditions: read-out: Ratio IC50
Listed here are molecules together with their documented selectivity ratio.
readout: selectivity ratio

molecule="O=C1C[C@H]2S[C@H]3C[C@]2(C=C1Br)C1=C(N3)C(=O)c2[nH]cc3c2C1=NCC3 [DISCORHABDINE A]" val=130
molecule="O=C1C2=C(C3=NCCc4c[nH]c1c43)C1(C=C(Br)C(O)C(Br)=C1)CCN2 (stereo not drawn) [DIHYDRODISCORHABDIN C]" val=58
molecule="O=C1C(Br)=CC2(C=C1Br)CCNC1=C2C2=NCCc3c[nH]c(c32)C1=O [DISCORHABDIN C]" val=1

----------
Known log10(MIC) of a selection of compounds
Test system: Mycobacterium tuberculosis
method: Antituberculosis activity against Mycobacterium tuberculosis H37Rv after 4 days by alamar blue assay
Assay type: functional, organism-based
applied.conditions: 96 h
readout: log10(MIC) (log10 of the value in µM)

compound="O=C1C[C@H]2S[C@H]3C[C@]2(C=C1Br)C1=C(N3)C(=O)c2[nH]cc3c2C1=NCC3 [DISCORHABDINE A]" readout=log10(MIC) val=0.89
compound="O=C1C2=C(C3=NCCc4c[nH]c1c43)C1(C=C(Br)C(O)C(Br)=C1)CCN2 (stereo not given) [DIHYDRODISCORHABDIN C]" readout=log10(MIC) val=1.15
compound="O=C1C(Br)=CC2(C=C1Br)CCNC1=C2C2=NCCc3c[nH]c(c32)C1=O [DISCORHABDIN C]" readout=log10(MIC) val=0.90
compound="CO[C@H]1/C=C/O[C@@]2(C)Oc3c(C)c(O)c4c(O)c(c(/C=N/N5CCN(C)CC5)c(O)c4c3C2=O)NC(=O)/C(C)=C\\C=C\\[C@H](C)[C@H](O)[C@@H](C)[C@@H](O)[C@@H](C)[C@H](OC(C)=O)[C@@H]1C [RIFAMPIN]" readout=log10(MIC) val=-0.68
compound="NNC(=O)c1ccncc1 [ISONIAZID]" readout=log10(MIC) val=0.51

----------
Tested on: Mycobacterium intracellulare
method: Antibacterial activity against Mycobacterium intracellular by after 4 days alamar blue assay
Type: functional, organism-based
applied.conditions: Mycobacterium intracellulare, 96 h; read-out: IC50
A collection of compounds and their measured IC50
readout: IC50 (nM)

structure_string=O=C1C(Br)=CC2(C=C1Br)CCNC1=C2C2=NCCc3c[nH]c(c32)C1=O val=130
structure_string=O=C1C[C@H]2S[C@H]3C[C@]2(C=C1Br)C1=C(N3)C(=O)c2[nH]cc3c2C1=NCC3 val=360
